- System: MS2 coat protein
- method.notes: apparent KD of MS2 coat protein, switch ON state; designed switch direction (-1 OFF switch, 1 ON switch): -1; higher = weaker reporter binding
- stated.conditions: FMN input: 0 or 200 uM; Eterna round: R93 (includes R88 designs)
endpoint: apparent KD of MS2 coat protein (µM)
// units = µM; emit number, no label

Need apparent KD of MS2 coat protein, item GAGAGCCGAGGAUAUACAUGAGGAUCACCCAUGUAAAAAAAAAAAAAAAAAAAAUCAUGUAGAAGGCGGCUUUC [hsl_exclusion3]
0.234

Need apparent KD of MS2 coat protein, item AGUGAGUGAGGAUAUUACUGAAGAAUAAAAGAAAUAACAAGUAAGAAGGCACAUGAGGAUCACCCAUGUACACA [May 61]
0.0224

Need apparent KD of MS2 coat protein, item AACAGUACAGGAUAUACAUGAGGAUCACCCAUGUGAGAAUUAAGUGGAGGACCACAAAGUAGAAGGGUACUGAA [Mat - Exclusion 3 - JL mod - D9]
0.0569

Need apparent KD of MS2 coat protein, item AAAAAGUCAGGAUAUGCAGACAAAGCAAAAAAGCAAUGUCUGCAGAAGGGACAUGAGGAUCACCCAUGUAAAAA [Ex 4 May 9]
0.0577

Need apparent KD of MS2 coat protein, item GAAAAACAUGAGGAUCACCCAUGUAAGGAUAUGCGAAAAUAAAAUAAAAUAAAAUAAAGCAGAAGGUACAAAAG [Mat - Exclusion 1 - Eli mod - D2]
0.0347

Need apparent KD of MS2 coat protein, item AAGGUAGGAGGAUAUACAUAGAUACAGAUACAUGUAGACGUACAUGAGGAUCACCCAUGUAGAAGGCCUAUAUA [Mat - Same state - Mayanna Mod - D147]
0.0973

====

Measured apparent KD of MS2 coat protein, listed per entry for reference.
- System: MS2 coat protein
- method.notes: apparent KD of MS2 coat protein; designed switch direction (-1 OFF switch, 1 ON switch): -1; higher = weaker reporter binding
- stated.conditions: Eterna round: R95; input ligand: none
// units = nM; emit number, no label

Answered examples (5):
sequence.data: CCGUGGCAAGGAUAUACAGAGGAGAGGAAGGCAAGAGGUGGACAUGAGGAUCACCCAUGUAGAAGGUGCAGAGC [JR_Exclu2_Sub026] (puzzle: Exclusion 2)
endpoint: apparent KD of MS2 coat protein
unit: nM
readout.number: 160

sequence.data: UUGUAUAUCUAUGGGAGUAACAUGAGGAUCACCCAUGUAUGUCUUGUUUUUUGUUCGUCAUAGGCCAAUUGAAUGGU [JR_SV3TOV1_Sub026] (puzzle: Sensor v3, turn-off variant 1)
endpoint: apparent KD of MS2 coat protein
unit: nM
readout.number: 28.9

sequence.data: UGUACUAUGCGUGCUGACAUGCGUAGUGCAGCAGGUGUAACAUGAGGAUCACCCAUGUCCUCAUUUGCUCGUCUUAU [SL-sv3-2.06 JL mod] (puzzle: Sensor v3, turn-off variant 2)
endpoint: apparent KD of MS2 coat protein
unit: nM
readout.number: 273

sequence.data: AACGACUGAGGAUAUACAUGAGGAUCACCCAUGUGUUGAAAUACGUGCUUGGUUAACUGUAGAAGGCAGAAAAU [Isxeen] (puzzle: Exclusion 3)
endpoint: apparent KD of MS2 coat protein
unit: nM
readout.number: 14

sequence.data: AGAAAUGCCCAUGGCCACAAGCUUUUUGCUUGUCUUACUACAUGAGGAUCACCCAUGUACCAUGGGCUCCUGAUAAU [Anxemaes] (puzzle: Sensor v3, turn-off variant 2)
endpoint: apparent KD of MS2 coat protein
unit: nM
readout.number: 10.4

Need apparent KD of MS2 coat protein, item GCGCAGGUAGGAUAUCGAGCUAAGAACAUGAGGAUCACCCAUGUGUUCGGUAGCCAACUUCGAGAAGGACCAAAUA [Ceati] (puzzle: Exclusion 5)
14.9

Need apparent KD of MS2 coat protein, item AGUACUAACACGAAAGUGUUAGUACAAUAAGCUAGUGGAACAUGAGGAUCACCCAUGUCCUCAUUAGCUCGUCUUAU [Mat - Sensor v3 - Turn-off var 2 - D33] (puzzle: Sensor v3, turn-off variant 2)
13.4

Need apparent KD of MS2 coat protein, item GGGAUGUGAGGAUAUCGAGGUGCAAAGCACCUAAAAGAAAACGAGAAGGCACAUGAGGAUCACCCAUGUAAUAC [Xeinle] (puzzle: Exclusion 4)
26

Need apparent KD of MS2 coat protein, item UUUCGGCGGACCGUGGCUUUUUGCUCGUCUUAUGCUACGACAUGAGGAUCACCCAUGUGGUGGUGGUCCGUUGUUGU [Grok-var2-11 mod JAL] (puzzle: Sensor v3, turn-off variant 2)
39.7

Need apparent KD of MS2 coat protein, item AAGUACCGUCACGAUAGUGAUGGUACAACAAGUAUGUGAACAUGAGGAUCACCCAUGUCCUCUUUUGCUCGUCUUAU [Sensor 3 - 89] (puzzle: Sensor v3, turn-off variant 2)
309

Need apparent KD of MS2 coat protein, item CAGUACUGAGGAUAUACAUGAGGAUCACCCAUGUGUUCGAGCUAGGAAACUAGCAAAAGUAGAAGGCAGUACUG [salish99_ex3_r3_080] (puzzle: Exclusion 3)
14.9

Need apparent KD of MS2 coat protein, item GACCAACGGGUUUACCUUUACAUGAGGAUCACCCAUGUCGCAAGCUUUUUCUCGGGUCCAAUCUUAUAAAUAUUAAU [Legedi] (puzzle: Sensor v3, turn-off variant 1)
179

Need apparent KD of MS2 coat protein, item CCGGUAAAGGAGGAUAUAGGAGUCGAUAGACACCUAGAAGGCCUGACAUGAGGAUCACCCAUGUGUCCUACCGG [Fiskers Ex 6 - 93] (puzzle: Exclusion 6)
13.5

====

- Tested on: MS2 coat protein
- method.notes: apparent KD of MS2 coat protein; designed switch direction (-1 OFF switch, 1 ON switch): 1; higher = weaker reporter binding
- stated.conditions: input ligand: microRNA oligo, concentration not stated
endpoint: apparent KD of MS2 coat protein (nM)
// units = nM; emit number, no label

sequence.data: ACAUGAGAUUGAGGAUAUAUUGUACCUACAUGUGACAUGAGGAUCACCCAUGUGGUAAGUAUGACAUAGAAGGCAAAGAUAUGU [Equivalance 81 - Jieux - Same State NG 2] (Eterna round: R96, puzzle: Same State NG 2)
apparent KD of MS2 coat protein / nM: 54.1

sequence.data: CUCCGGAUUGACAUGAGGAUCACCCAUGUGCCCUCAUUAAAGUAGGAUAUACCUCGCAGUCGGGAGUAGAAGGACUUUAUGAGU [Eternabot solution 36] (Eterna round: R96, puzzle: Same State NG 3)
apparent KD of MS2 coat protein / nM: 91.1

Need apparent KD of MS2 coat protein, item GUAAUAAUGUAAGGAUAUACAUGAGGAUUUCUCGUAGAAGGUACAAGACAUGAGGAUCACCCAUGUGUCGCUCAGAAGAGCGUA [Mat - Same State NG 1 - JL mod - D16] (Eterna round: R96, puzzle: Same State NG 1)
158

Need apparent KD of MS2 coat protein, item CACCCAAAGGAAGGAUAUAGGGACUCGAGGACAACAUGAGGAUCACCCAUGUCCCGCCAUCGGCCUUAGAAGGUCCAAGGGAAC [Eternabot solution 7] (Eterna round: R96, puzzle: Same State NG 2)
17.1

====

- Test system: MS2 coat protein
- method.notes: apparent KD of MS2 coat protein; higher = weaker reporter binding
- stated.conditions: Eterna round: R107; input ligand: none
endpoint: apparent KD of MS2 coat protein (nM)
// units = nM; emit number, no label

sequence.data: GGGCCCGGCCGAAAGGCCGGGCCCGCUGAAGGAGCGGGAAAUAACCCAGGUAGGUCGCAGAGAUCCACAUGAGGAUCACCCAUGU [#26 Exclusion - Arginine A]
unit: nM
readout.number: 26.5

Need apparent KD of MS2 coat protein, item AGCAGCUCGAAAGAGUUGCACUCAUGUGAAGGAGCGCCCGUUAGGGCAGGUAGGUCGCACAUGAGGAUCACCCAUGUACCUUCUA [ArgAX 20 #OpenEnded #MS2Late]
174

Need apparent KD of MS2 coat protein, item CUAAGAGCGGCGGCCGCCACUGGUAACCAAGAGGCGGAGCCUCUGACAUGAGGAUCACCCAUGUUCAGGACCGGGUCGUCUUAGA [#07 Same State - Tryptophan B]
12.2

Need apparent KD of MS2 coat protein, item ACGAUAGGACUUGAGGAUCACCCAAGUGAUACCAGCCUGGAAACAGGCCCUUGGCAGCACUAAUACUCCAAUAACCUAUCGAAUA [TheoAX 14 #MicroSwitchBubble #AlternativeMS2]
232

Need apparent KD of MS2 coat protein, item GCGAUGGAGCGAAGGAGCGUGCUAGUACAUGAGGAUCACCCAUGUGAGUCGCAUCGCUAAGCACAGGUAGGUCGCGCUCCAUCGC [EAB NP+V+V2 #9]
94.2

Need apparent KD of MS2 coat protein, item AACGUAUACAGAAGGAGCGUGAUUUAUUAUUCUUUAAGAUAUACAUGAGGAUCACCCAUGUCACAGGUAGGUCGCUGUAUUCGUA [JR_ExcArginiB_Sub025]
34.3

Need apparent KD of MS2 coat protein, item ACGUAAUGCGGAAGGAGCGUCAUUUUAAAACAUGAGGAUCACCCAUGUAAUAUUUUUGUGUGACAGGUAGGUCGCCGAAGUACGA [#07 Same State - Arginine B]
12.9

Need apparent KD of MS2 coat protein, item AAUGUAAUAGUCGUACUCUUACACUGAGAAGGAGCGCGAAAGUUCGCAGGUAGGUCGCUCAGUUAUACAUGAGGAUCACCCAUGU [Bebemaata]
24.8

Need apparent KD of MS2 coat protein, item GGCGCUGCGUCGGCCGCCACUAGCGGGUAAUGGGUGUACAUGAGGAUCACCCAUGUAAUAUGGCCUAGGACCGGGACGUGGCGCC [Moose]
427
